Provenance of the data: patent US10828372B2

Test target: human plasma FN
Sequence (P02751 32-608 limits assumed): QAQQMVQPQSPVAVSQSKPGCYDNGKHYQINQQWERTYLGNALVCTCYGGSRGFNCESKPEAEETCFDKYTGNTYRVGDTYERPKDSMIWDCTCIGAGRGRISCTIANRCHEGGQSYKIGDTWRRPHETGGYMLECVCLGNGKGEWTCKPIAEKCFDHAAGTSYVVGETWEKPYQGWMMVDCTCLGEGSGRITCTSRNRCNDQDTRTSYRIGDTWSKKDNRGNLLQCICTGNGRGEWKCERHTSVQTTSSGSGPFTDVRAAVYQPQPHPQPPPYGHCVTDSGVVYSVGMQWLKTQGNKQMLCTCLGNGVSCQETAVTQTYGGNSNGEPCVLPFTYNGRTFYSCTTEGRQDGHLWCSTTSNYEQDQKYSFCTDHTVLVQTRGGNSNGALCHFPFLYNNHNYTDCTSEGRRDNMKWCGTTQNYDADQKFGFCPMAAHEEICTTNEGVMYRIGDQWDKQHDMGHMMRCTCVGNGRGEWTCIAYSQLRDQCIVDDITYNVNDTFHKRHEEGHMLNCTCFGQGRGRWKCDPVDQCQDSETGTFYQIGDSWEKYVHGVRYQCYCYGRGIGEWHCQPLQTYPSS
Procedure details: Isothermal Titration calorimetry (ITC) of peptide binding to fibronectin
Condition label: pH 7.4 PBS, 25° C., triplicate
Where no end group is shown, it is not given here. PEG10kDa = 10 kDa linear methoxy-PEG propionaldehyde on the N-terminus; PEG20kDa = 20 kDa linear methoxy-PEG propionaldehyde on the N-terminus
# pKd annotations
pKd here: minus log base 10 of the concentration, concentration in moles per litre.

Guide cases for pKd, answers given:
Substance: 10 kDa PEG-FUD: FUD N-terminally mono-PEGylated with 10 kDa linear methoxy-PEG propionaldehyde (PEG10kDa-KDQSPLAGESGETEYITEVYGNQQNPVDIDKKLPNETGFSGNMVETEDT)
Test target: human plasma FN
pKd: 8.34

Substance: FUD: 49 amino acid FUD peptide, SEQ ID NO: 1, recombinantly expressed, His-tag removed; inhibitor of fibronectin fibrillogenesis (KDQSPLAGESGETEYITEVYGNQQNPVDIDKKLPNETGFSGNMVETEDT; human) [reference compound]
Test target: human plasma FN
pKd: 8.22

Substance: 40 kDa PEG-FUD: FUD N-terminally mono-PEGylated with 40 kDa branched methoxy-PEG propionaldehyde ({mPEG 40 kDa branched}-KDQSPLAGESGETEYITEVYGNQQNPVDIDKKLPNETGFSGNMVETEDT)
Test target: human plasma FN
pKd: 7.83

Next substance, pKd to be filled in.
Memo: 20 kDa PEG-FUD: FUD N-terminally mono-PEGylated with 20 kDa linear methoxy-PEG propionaldehyde (PEG20kDa-KDQSPLAGESGETEYITEVYGNQQNPVDIDKKLPNETGFSGNMVETEDT) , reported pKd: 8.00
